Origin of values: ChEMBL document CHEMBL3286347

Tested on: THP-1
Experiment: Antiinflammatory activity in human THP1 cells assessed as inhibition of IL-1beta secretion at 1 uM treated 1 hr before LPS challenge measured after 24 hrs by ELISA
Assay type: functional, cell-based
Activity calls are given as the source filed them. The rule behind the calls is not given here.
PROPERTY MEASURED: inhibition

[
  {
    "SMILES CODE": "CC(C)=CCc1c(O)cc(-c2cc3ccc(O)cc3o2)cc1O",
    "PROPERTY MEASURED": "inhibition",
    "REPORTED VALUE": "inactive"
  },
  {
    "SMILES CODE": "CC(C)(O)CCc1c(-c2ccc(O)cc2O)oc2c3c(cc(O)c2c1=O)OC(C)(C)C=C3",
    "PROPERTY MEASURED": "inhibition",
    "REPORTED VALUE": "Active"
  },
  {
    "SMILES CODE": "CC1(C)C=Cc2c(O)ccc([C@@H]3CC(=O)c4c(O)cc(O)cc4O3)c2O1",
    "PROPERTY MEASURED": "inhibition",
    "REPORTED VALUE": "Active"
  },
  {
    "SMILES CODE": "COc1c(O)cc2oc(-c3cc(O)cc(O)c3)cc2c1C/C=C(\\C)CCC=C(C)C",
    "PROPERTY MEASURED": "inhibition",
    "REPORTED VALUE": "Active"
  },
  {
    "SMILES CODE": "CC(C)=CCc1c(-c2ccc(O)cc2O)oc2cc3c(c(O)c2c1=O)C=CC(C)(C)O3",
    "PROPERTY MEASURED": "inhibition",
    "REPORTED VALUE": "inactive"
  }
]

---

System: THP-1
Assay: Cytotoxicity against human THP1 cells after 24 hrs by WST1 assay
Type: cell-based
Settings: THP-1, 24 h
pIC50: −log10 of the molar value.

[
  {
    "COMPOUND": "CC(C)=CCc1c(O)ccc(C(=O)[C@@H]2[C@@H](c3ccc(O)cc3O)CC(C)=C[C@H]2c2c(O)cc3c(c2O)C(=O)[C@@H]2Oc4cc(O)ccc4[C@]2(CC=C(C)C)O3)c1O",
    "INEQUALITY SIGN": "=",
    "pIC50": 5.40
  },
  {
    "COMPOUND": "CC(C)(O)CCc1c(-c2ccc(O)cc2O)oc2c3c(cc(O)c2c1=O)OC(C)(C)C=C3 [MORUSINOL]",
    "INEQUALITY SIGN": "=",
    "pIC50": 5.37
  },
  {
    "COMPOUND": "CC(C)=CCC/C(C)=C/Cc1cc(C2CC(=O)c3c(O)cc(O)cc3O2)c(O)cc1O (stereo not given) [KUWANON E]",
    "INEQUALITY SIGN": "=",
    "pIC50": 5.40
  },
  {
    "COMPOUND": "CC1(C)C=Cc2c(O)ccc([C@@H]3CC(=O)c4c(O)cc(O)cc4O3)c2O1",
    "INEQUALITY SIGN": "<",
    "pIC50": 5.00
  },
  {
    "COMPOUND": "CC(C)=CCc1c(-c2ccc(O)cc2O)oc2c(CC=C(C)C)c(O)cc(O)c2c1=O [KUWANON C]",
    "INEQUALITY SIGN": "=",
    "pIC50": 5.77
  },
  {
    "COMPOUND": "COc1c(O)cc2oc(-c3cc(O)cc(O)c3)cc2c1C/C=C(\\C)CCC=C(C)C [MULBERROFURAN Y]",
    "INEQUALITY SIGN": "=",
    "pIC50": 5.32
  },
  {
    "COMPOUND": "CC(C)=CCc1c(O)cc(-c2cc3ccc(O)cc3o2)cc1O [MORACIN C]",
    "INEQUALITY SIGN": "=",
    "pIC50": 5.49
  },
  {
    "COMPOUND": "C[C@@]12C=C(c3c(O)cc(-c4cc5ccc(O)cc5o4)cc3O)C[C@@H](C1)c1ccc(O)cc1O2 [MULBERROFURAN H]",
    "INEQUALITY SIGN": "=",
    "pIC50": 5.49
  },
  {
    "COMPOUND": "CC1=C[C@@H]2c3c(O)cc(C=O)cc3OC3(c4ccc(O)c5c4OC(C)(C)C=C5)Oc4cc(O)ccc4[C@@H](C1)[C@H]23 (stereo not given in full)",
    "INEQUALITY SIGN": "=",
    "pIC50": 5.33
  },
  {
    "COMPOUND": "CC(C)=CCc1c(-c2ccc(O)cc2O)oc2cc3c(c(O)c2c1=O)C=CC(C)(C)O3 [CUDRAFLAVONE B]",
    "INEQUALITY SIGN": "<",
    "pIC50": 5.00
  }
]
